- Test system: Rattus norvegicus
- testProtocol: Tested for the presence of catalepsy(CAT) in rats after oral administration
- Type: functional
EDmin values for the compounds below.
The response must be a number in mg/kg with no trailing unit.

Below, each entry is followed by its recorded EDmin result.
CC1=C[C@@H]2c3cccc4[nH]c(SCc5ccccc5)c(c34)C[C@H]2N(C)C1 :: 80
CC1=C[C@@H]2c3cccc4[nH]c(Sc5ccccc5)c(c34)C[C@H]2N(C)C1 :: 10
CCSc1[nH]c2cccc3c2c1C[C@@H]1[C@@H]3C=C(C)CN1C :: 40
CSc1[nH]c2cccc3c2c1C[C@@H]1[C@@H]3C=C(C)CN1C :: 10

With those in mind, consider the next compound.
Summary for this compound, CSc1[nH]c2cccc3c2c1C[C@@H]1[C@@H]3C[C@@H](C)CN1C : EDmin is 20

----------
- System: Rattus norvegicus
- testProtocol: Conditioned avoidance response in rats after oral administration
- Assay type: functional
readoutLabel: EDmin (mg/kg)
// note: answer is a bare numeric in mg/kg

Example compounds with recorded EDmin:
CC1=C[C@@H]2c3cccc4[nH]c(SCc5ccccc5)c(c34)C[C@H]2N(C)C1 :: 25
CSc1c2c3c(cccc3n1C)[C@H]1C=C(C)CN(C)[C@@H]1C2 :: 100
CSc1[nH]c2cccc3c2c1C[C@@H]1[C@@H]3C=C(C)CN1C :: 2.5

Kindly note: Rattus norvegicus, CC1=C[C@@H]2c3cccc4[nH]c(SC(C)C)c(c34)C[C@H]2N(C)C1 , EDmin value reported: 10

The value of EDmin recorded for CCSc1[nH]c2cccc3c2c1C[C@@H]1[C@@H]3C=C(C)CN1C when tested on Rattus norvegicus reads 25

Result for O=C(CCCN1CCC(O)(c2ccc(Cl)cc2)CC1)c1ccc(F)cc1 , tested on Rattus norvegicus, EDmin: 0.5

The reported Rattus norvegicus EDmin of C[C@@H]1C[C@@H]2c3cccc4[nH]c(Sc5ccccc5)c(c34)C[C@H]2N(C)C1 is 20

Entry CSc1[nH]c2cccc3c2c1C[C@@H]1[C@@H]3C[C@H](C)CN1C , tested on Rattus norvegicus, has a reported EDmin of 40

Lab note: compound CSc1[nH]c2cccc3c2c1C[C@@H]1[C@@H]3C[C@@H](C)CN1C tested on Rattus norvegicus; recorded EDmin was 5

GET /values?item= CCCCCCSc1[nH]c2cccc3c2c1C[C@@H]1[C@@H]3C=C(C)CN1C &system= Rattus norvegicus returns EDmin: 50

For CC1=C[C@@H]2c3cccc4[nH]c(Sc5ccc(Cl)cc5)c(c34)C[C@H]2N(C)C1 on Rattus norvegicus, measured EDmin was 100

----------
- System: Rattus norvegicus
- testProtocol: Conditioned avoidance response in rats after oral administration
- Assay type: functional
Catalogue of molecules with associated EDmin
Response body: numeric value in mg/kg, unit text excluded.

These recorded examples may help you get a feel for the data.
CCN1CC(C)=C[C@@H]2c3cccc4[nH]c(SC)c(c34)C[C@H]21 :: 25
CN1CCN(C2=Nc3cc(Cl)ccc3Nc3ccccc32)CC1 :: 30
CSc1c2c3c(cccc3n1CO)[C@H]1C=C(C)CN(C)[C@@H]1C2 :: 20

Short answer for CN(C)CCCN1c2ccccc2Sc2ccc(Cl)cc21 : EDmin was 10

EDmin for CC1=C[C@@H]2c3cccc4[nH]c(Sc5ccccc5)c(c34)C[C@H]2N(C)C1 is 2.5
